Assay system: mutant cKIT (560-576 and V654A) in GIST430/654 cell line (Homo sapiens (Human), UniProt P10721, DEL560-576/V654A)
Sequence (P10721 other isoform, or with tags, fused parts or gaps V654A/del 1-25/del 560-576 limits assumed): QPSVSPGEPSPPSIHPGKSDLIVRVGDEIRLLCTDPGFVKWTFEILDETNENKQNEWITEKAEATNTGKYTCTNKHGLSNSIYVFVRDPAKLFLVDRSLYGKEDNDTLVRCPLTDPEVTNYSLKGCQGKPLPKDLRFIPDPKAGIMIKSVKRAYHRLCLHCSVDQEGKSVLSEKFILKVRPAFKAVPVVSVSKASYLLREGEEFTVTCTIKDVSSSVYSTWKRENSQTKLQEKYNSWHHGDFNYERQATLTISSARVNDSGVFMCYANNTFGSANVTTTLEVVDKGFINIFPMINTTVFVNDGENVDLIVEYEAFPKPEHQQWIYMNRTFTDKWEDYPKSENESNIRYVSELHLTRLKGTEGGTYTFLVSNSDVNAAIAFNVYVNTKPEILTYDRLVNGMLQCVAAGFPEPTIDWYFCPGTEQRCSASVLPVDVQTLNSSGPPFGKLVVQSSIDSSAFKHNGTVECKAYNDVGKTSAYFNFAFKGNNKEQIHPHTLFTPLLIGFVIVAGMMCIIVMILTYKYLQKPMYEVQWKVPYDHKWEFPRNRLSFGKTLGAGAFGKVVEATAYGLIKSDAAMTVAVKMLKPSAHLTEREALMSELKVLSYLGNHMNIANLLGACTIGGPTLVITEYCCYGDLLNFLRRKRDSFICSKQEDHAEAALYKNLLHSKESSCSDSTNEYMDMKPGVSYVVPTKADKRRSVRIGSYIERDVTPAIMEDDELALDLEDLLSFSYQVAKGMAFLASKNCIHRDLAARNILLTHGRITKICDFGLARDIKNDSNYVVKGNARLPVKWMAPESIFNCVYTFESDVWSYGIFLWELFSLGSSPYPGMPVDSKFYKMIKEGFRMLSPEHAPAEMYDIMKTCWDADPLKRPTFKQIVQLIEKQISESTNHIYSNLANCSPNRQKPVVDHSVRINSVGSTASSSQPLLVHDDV
Assay: Cellular testing of cKIT mutant inhibitors: phospho-Y307-cKIT Luminex assay in GIST430/654 cells
Format: cell-based
Study conditions: Table 1; cKIT autophosphorylation, compounds 45 min; read-out: GIST 430/654 IC50
Measured property: IC50 (nM)

Illustrative cases are given below, each with its answer.
• COCCOc1cc2[nH]nc(-c3cc(-c4ccc(C(=O)N5CC[C@@H]6COC[C@@H]6C5)cc4)no3)c2cc1F (relative stereo) = 35
• COCCOc1cc2[nH]nc(-c3cc(-c4ccc(S(C)(=O)=O)cc4)no3)c2cc1Cl = 240

[a] COCCOc1cc2[nH]nc(-c3cc(-c4ccc(C(=O)N5CC(N6CCOCC6=O)C5)cc4)no3)c2cc1F
[b] COCCOc1cc2[nH]nc(-c3cc(-c4ccc(C(=O)N5CC[C@H]6CNC(=O)[C@H]65)cc4)no3)c2cc1F (relative stereo)
Request: Response body: label of entry with the larger IC50; valid values a , b . State your choice using its label.
Response: b
(b: 320 nM, a: 61 nM)

[1] COCCOc1cc2[nH]nc(-c3cc(-c4ccc(C(=O)N5CCOC[C@H]5COC)cc4)no3)c2cc1F
[2] COCCOc1cc2[nH]nc(-c3cc(-c4ccc(N5CC[S+]([O-])CC5)cc4)no3)c2cc1F
[3] COCCOc1cc2[nH]nc(-c3cc(-c4ccc(C(=O)N5CC(O)(c6cccnc6)C5)cc4)no3)c2cc1F
Request: List from greatest to least IC50. Provide the ranking by listing each label in its place in the requested order.
Response: 3, 1, 2
(3: 120 nM, 1: 62 nM, 2: 24 nM)

[P] COCCOc1cc2[nH]nc(-c3cc(-c4ccc(C(=O)N5C[C@@H]6C[C@H]5CO6)cc4)no3)c2cc1F
[Q] COCCOc1cc2[nH]nc(-c3cc(-c4ccc(C(=O)N5C[C@H]6COC[C@H]6C5)c(F)c4)no3)c2cc1F
Request: Input pair: P , Q . Output: entry with lower IC50. Write the label of whichever entry you select.
Response: P
(P: 44 nM, Q: 90 nM)

[1] COCCOc1cc2[nH]nc(-c3cc(-c4ccc(C(=O)N5CC(n6cccn6)C5)cc4)no3)c2cc1F
[2] COCCOc1cc2[nH]nc(-c3cc(-c4ccc(C(=O)N5CCN(C6COC6)CC5)nc4)no3)c2cc1F
Request: Short answer wanted: higher IC50, 1 or 2 ? I would appreciate it if you answered with the label of your choice.
Response: 2

From: patent US20260042753A1
